Every entry's value here was drawn from paper PMC6544242.

Details: processed extract sample, 4°C, 24h, level H (QC 1500 ng/mL)
Could you please report measured % from t0 for the items listed next?
Give bare numbers, in %.

Worked examples follow.
>  <compound>
O=c1nc(N2CCN(CC3CCCC(O)C3)CC2)sc2c([N+](=O)[O-])cc(C(F)(F)F)cc12 (stereo not drawn)

>  <measurement-unit>
%

>  <% from t0>
-2

$$$$
>  <compound>
O=C(C1CCCCC1)N1CCN(c2nc(=O)c3cc(C(F)(F)F)cc([N+](=O)[O-])c3s2)CC1

>  <measurement-unit>
%

>  <% from t0>
4

$$$$
>  <compound>
O=C1CCCC(CN2CCN(c3nc(=O)c4cc(C(F)(F)F)cc([N+](=O)[O-])c4s3)CC2)C1 (stereo not drawn)

>  <measurement-unit>
%

>  <% from t0>
-2

$$$$

Return reported % from t0 values for all items listed beneath this line.
1. O=c1nc(N2CCN(CC3CCCCC3O)CC2)sc2c([N+](=O)[O-])cc(C(F)(F)F)cc12 (stereo not drawn)
2. O=c1nc(N2CCN(CC3CCCCC3)CC2)sc2c([N+](=O)[O-])cc(C(F)(F)F)cc12
3. O=c1nc(N2CCN(CC3(O)CCCCC3)CC2)sc2c([N+](=O)[O-])cc(C(F)(F)F)cc12

Ans:
-4
-15
-2

###

Conditions: human, 1 h, 10 ng/mL
measurement-kind: % from t0 (%)
Answers are plain numbers, in %.

Solved cases below.
>  <compound>
O=C1CCCC(CN2CCN(c3nc(=O)c4cc(C(F)(F)F)cc([N+](=O)[O-])c4s3)CC2)C1 (stereo not drawn) [Met 3-oxo]

>  <measurement-kind>
% from t0

>  <measured>
-1

$$$$
>  <compound>
O=c1nc(N2CCN(CC3CCCC(O)C3)CC2)sc2c([N+](=O)[O-])cc(C(F)(F)F)cc12 (stereo not drawn) [Met 3-OH]

>  <measurement-kind>
% from t0

>  <measured>
6

$$$$
>  <compound>
O=C(C1CCCCC1)N1CCN(c2nc(=O)c3cc(C(F)(F)F)cc([N+](=O)[O-])c3s2)CC1 [Met oxo]

>  <measurement-kind>
% from t0

>  <measured>
1

$$$$
>  <compound>
O=c1nc(N2CCN(CC3(O)CCCCC3)CC2)sc2c([N+](=O)[O-])cc(C(F)(F)F)cc12 [Met 1-OH]

>  <measurement-kind>
% from t0

>  <measured>
4

$$$$
>  <compound>
O=c1nc(N2CCN(CC3CCCCC3)CC2)sc2c([N+](=O)[O-])cc(C(F)(F)F)cc12 [PBTZ169, macozinone]

>  <measurement-kind>
% from t0

>  <measured>
1

$$$$

Here is another compound to look at.
Q: Dear colleague, please send me the reported % from t0 for O=c1nc(N2CCN(CC3CCCCC3O)CC2)sc2c([N+](=O)[O-])cc(C(F)(F)F)cc12 (stereo not drawn) [Met 2-OH] when you can.
Ans: 1

###

Conditions: processed extract sample, RT, 24h, level L (QC 2 ng/mL)
Would you kindly list % from t0 for each of these molecules?
Give bare numbers, in %.

Example results:
>  <molecule>
O=c1nc(N2CCN(CC3(O)CCCCC3)CC2)sc2c([N+](=O)[O-])cc(C(F)(F)F)cc12

>  <measurement-unit>
%

>  <% from t0>
-55

$$$$
>  <molecule>
O=C(C1CCCCC1)N1CCN(c2nc(=O)c3cc(C(F)(F)F)cc([N+](=O)[O-])c3s2)CC1

>  <measurement-unit>
%

>  <% from t0>
6

$$$$
>  <molecule>
O=c1nc(N2CCN(CC3CCCCC3)CC2)sc2c([N+](=O)[O-])cc(C(F)(F)F)cc12

>  <measurement-unit>
%

>  <% from t0>
-3

$$$$
>  <molecule>
O=c1nc(N2CCN(CC3CCCC(O)C3)CC2)sc2c([N+](=O)[O-])cc(C(F)(F)F)cc12 (stereo not drawn)

>  <measurement-unit>
%

>  <% from t0>
-59

$$$$
>  <molecule>
O=C1CCCC(CN2CCN(c3nc(=O)c4cc(C(F)(F)F)cc([N+](=O)[O-])c4s3)CC2)C1 (stereo not drawn)

>  <measurement-unit>
%

>  <% from t0>
-58

$$$$

Q: For the molecule O=c1nc(N2CCN(CC3CCCCC3O)CC2)sc2c([N+](=O)[O-])cc(C(F)(F)F)cc12 (stereo not drawn) , give its reported % from t0.
Ans: -61
